# condition.notes: 308.15 K; 101 kPa; Liquid; Linear variable-path acoustic interferometer
Parameter speed of sound: see the listing below.
observable: speed of sound (m/s)

>  <compound>
CCC(C)=O [butanone]

>  <observable>
speed of sound

>  <value.measured>
1158

$$$$
>  <compound>
CCCC(C)=O [pentan-2-one]

>  <observable>
speed of sound

>  <value.measured>
1176

$$$$
>  <compound>
O=S1(=O)CCCC1 [sulfolane]

>  <observable>
speed of sound

>  <value.measured>
1576

$$$$
>  <compound>
CC(=O)CC(C)C [4-methylpentan-2-one]

>  <observable>
speed of sound

>  <value.measured>
1156

$$$$
>  <compound>
CCC(=O)CC [pentan-3-one]

>  <observable>
speed of sound

>  <value.measured>
1179

$$$$

###

# condition.notes: 313.15 K; 101 kPa; Liquid; Pycnometric method

>  <compound>
CCC(C)=O [butanone]

>  <mass density, kg/m3>
783.1

$$$$
>  <compound>
CCC(=O)CC [pentan-3-one]

>  <mass density, kg/m3>
794.3

$$$$
>  <compound>
CCCC(C)=O [pentan-2-one]

>  <mass density, kg/m3>
785.5

$$$$
>  <compound>
O=S1(=O)CCCC1 [sulfolane]

>  <mass density, kg/m3>
1251.6

$$$$
>  <compound>
CC(=O)CC(C)C [4-methylpentan-2-one]

>  <mass density, kg/m3>
782.6

$$$$

###

# condition.notes: 303.15 K; 101 kPa; Liquid; Pycnometric method
± gives the expanded uncertainty stated by the source.

>  <molecule>
CCC(=O)CC [pentan-3-one]

>  <mass density>
804.5 ± 1.2 kg/m3

$$$$
>  <molecule>
O=S1(=O)CCCC1 [sulfolane]

>  <mass density>
1261.8 ± 1.1 kg/m3

$$$$
>  <molecule>
CCC(C)=O [butanone]

>  <mass density>
794.6 ± 0.7 kg/m3

$$$$
>  <molecule>
CCCC(C)=O [pentan-2-one]

>  <mass density>
796.6 ± 0.7 kg/m3

$$$$
>  <molecule>
CC(=O)CC(C)C [4-methylpentan-2-one]

>  <mass density>
791.7 ± 0.7 kg/m3

$$$$
